species: Rattus norvegicus; assay: DrugMatrix - Regimen: Daily Repeat; type: toxicity, organism-based, Sprague-Dawley; design: regimen Daily Repeat, gender Male, age 6-8 weeks; settings: in vivo, po, 0 mg/kg, 72 h, tissue Plasma, route oral GAVAGE, dose level Control, time 3 day, vehicle .5 % CMC
Measurement kind: LIPASE (u/L)
Unit u/L implied. Number only.

INSERT INTO measurements (molecule, measurement_kind, quantitative_readout) VALUES
  ('OC(CCN1CCCCC1)(c1ccccc1)C1CCCCC1 (stereo unspecified)', 'LIPASE', 9.17);

Reported LIPASE ( `CO[C@H]1/C=C/O[C@@]2(C)Oc3c(C)c(O)c4c(c3C2=O)C2=NC3(CCN(CC(C)C)CC3)NC2=C(NC(=O)/C(C)=C\C=C\[C@H](C)[C@H](O)[C@@H](C)[C@@H](O)[C@@H](C)[C@H](OC(C)=O)[C@@H]1C)C4=O` ) = 9

Reported LIPASE ( CC(C)[C@H]1CC[C@H](C(=O)N[C@H](Cc2ccccc2)C(=O)O)CC1 [NATEGLINIDE] ) = 9.83
